// provenance: paper PMC9352680

- target or system: T1, PUF4 RNA-binding domain (Saccharomyces cerevisiae, UniProt P25339 537-888)
- T1 sequence: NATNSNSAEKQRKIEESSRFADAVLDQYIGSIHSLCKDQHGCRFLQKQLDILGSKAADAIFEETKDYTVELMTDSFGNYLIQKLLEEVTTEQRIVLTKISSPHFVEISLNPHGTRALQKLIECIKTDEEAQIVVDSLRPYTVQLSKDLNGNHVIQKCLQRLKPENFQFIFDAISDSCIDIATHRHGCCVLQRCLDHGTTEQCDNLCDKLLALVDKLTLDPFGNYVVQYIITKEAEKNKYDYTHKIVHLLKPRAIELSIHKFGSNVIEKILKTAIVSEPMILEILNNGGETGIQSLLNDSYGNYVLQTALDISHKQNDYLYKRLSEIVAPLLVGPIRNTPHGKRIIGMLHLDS
- protocol text: Mg; RNA-MaP; 20 mM Na-HEPES pH 7.4, 30 mM KOAc, 0.75 mM MgCl2, 0.1% Tween-20, 5% glycerol, 0.1 mg/mL BSA, 2 mM DTT; 25 C; 0.0125-409.6 nM protein
- condition info: tags: N-His6-TEV cleaved; C-SNAP kept, Cy3B-labelled; label: tethered on chip by stalled RNA polymerase
Below, each entry is listed with its recorded Kd.
Provide only the numeric value, understood in nM.

Inquiry: Look up Kd for this binder: UCUCUUUGUACAAAACUCUCUU (ssRNA) [Ic_S1_P5E.1_K5.1_C5.1_H5.1_A5.1_[T5C]_[T6A]_F5.1_[T8A]_[T9A]_[A10C]_T5.1]
Reply text: 45.2

Inquiry: Look up Kd for this binder: UCUCUUUGUAUCGUGUCUCUU (ssRNA) [Ic_S1_P4E.1_K4.1_C4.1_H4.1_A4.1_[A6C]_[T7G]_F4.1_[A9G]_T4.1]
Reply text: 432

Inquiry: Look up Kd for this binder: ACAAACUGUAUCCCUAUUAACAAAC (ssRNA) [Ie_S3_P5E.1_K5.1_C5.1_H5.1_A5.1_[+5CCC]_F5.1_T5.1]
Reply text: 24.3

Inquiry: Look up Kd for this binder: Id_ii_S2_P5E.4_K5.3_C5.2_H5.3_A5.1_F5.1_T5.2 (ssRNA) RNA: UUUGAUUAAUAUGAUAUCGUUCUUUCUCUACACUUAUUAUAUUCUUUCUCGAUAUCAUAUUAAUCUUU
Reply text: 548

Inquiry: Look up Kd for this binder: UCUCUUUGUAUUCGUUUCUCUU (ssRNA) [Ic_S1_P5E.1_K5.1_C5.1_H5.1_A5.1_[A7C]_F5.1_[T8G]_[A10T]_T5.1]
Reply text: 378

Inquiry: Look up Kd for this binder: Ic_S4_P4E.1_K4.1_C4.1_H4.1_A4.1_[T5A]_[A6C]_[T7A]_F4.1_T4.1 (ssRNA) RNA: UUUGACAACUGAUCGUUCUUUCUUGUAACAUAUUCUUUCUCGAUCAGUUGUCUUU
Reply text: 1.34

Inquiry: Look up Kd for this binder: UCUCUUCUUGUAUAUAUAUCUCUU (ssRNA) [Id_ii_S1_P3E.2_K3.1_C3.2_H3.1_A3.1_F3.1_T3.2]
Reply text: 3.83

Inquiry: Look up Kd for this binder: Id_iii_S2_P5E.8_K5.4_C5.3_H5.1_A5.2_F5.1_T5.2_[A12C] (ssRNA) RNA: UUUGAUUAAUAUGAUAUCGUUCUUUCUUCUUGUAAUAUUAUCUUCUUUCUCGAUAUCAUAUUAAUCUUU
Reply text: 3.6

Inquiry: Look up Kd for this binder: Ib_S4_P5E.1_K5.1_C5.1_H5.1_[G2A]_A5.1_[T6A]_F5.1_T5.1 (ssRNA) RNA: UUUGACAACUGAUCGUUCUUUCUUAUAUAAUUAUUCUUUCUCGAUCAGUUGUCUUU
Reply text: 696

Inquiry: Look up Kd for this binder: UCUCUUUGUAUCUCUAUUAUCUCUU (ssRNA) [Ie_S1_P5E.1_K5.1_C5.1_H5.1_A5.1_[+5CTC]_F5.1_T5.1]
Reply text: 13.2

Inquiry: Look up Kd for this binder: UCUCUUGUACACUAUUAUAUCUCUU (ssRNA) [Id_ii_S1_P4E.4_K4.3_C4.2_[C-2G]_H4.3_A4.1_F4.1_T4.2_[G10T]_[T11A]]
Reply text: 1.07

Inquiry: Look up Kd for this binder: Ib_S2_P4E.1_K4.1_C4.1_H4.1_A4.1_[A6C]_F4.1_[A9T]_T4.1 (ssRNA) RNA: UUUGAUUAAUAUGAUAUCGUUCUUUCUUGUAUCUUUUUCUUUCUCGAUAUCAUAUUAAUCUUU
Reply text: 8.41
